Values compiled from the supplement of paper PMC9694430.

Each entry below carries its reported thermal shift delta Tm.
Tested on: LOC_OS02G14120-cb001;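 note: purified Escherichia coli-expressed rice kinase domain construct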
Assay Method Text: thermal shift delta Tm vs DMSO control; higher = stronger stabilization (binding)
Assay Setup: 12.5 µM; protein concentration 2 µM
Counter-ions that a name gives are not always drawn.

- Molecule: "COc1cc(N2CCC(N3CCN(C)CC3)CC2)ccc1Nc1ncnc(Nc2ccccc2S(=O)(=O)C(C)C)n1"
  thermal shift delta Tm [°C]: 3.1
- Molecule: "CC1(COc2ccc3c(c2)ncn3-c2ccc3cccc(N4CCC(N)CC4)c3n2)COC1"
  thermal shift delta Tm [°C]: 11.5
- Molecule: "COc1ccc(F)c(F)c1C(=O)c1cnc(NC2CCN(S(C)(=O)=O)CC2)nc1N"
  thermal shift delta Tm [°C]: -0.08
- Molecule: "CNCc1ccc(-c2cc(-c3nc(-c4ccc(S(=O)(=O)C(C)C)cc4)cnc3N)on2)cc1"
  thermal shift delta Tm [°C]: 2.23
- Molecule: "NC(=O)c1cnc2[nH]ccc2c1N[C@@H]1[C@@H]2CC3C[C@H]1C[C@@](O)(C3)C2"
  thermal shift delta Tm [°C]: 6.44
- Molecule: "Cc1nc(NC(=O)N2CCC[C@H]2C(N)=O)sc1-c1ccnc(C(C)(C)C(F)(F)F)c1 [Alpelisib (BYL719)]"
  thermal shift delta Tm [°C]: 2.13
- Molecule: "Cc1cnc(NC(=O)Nc2cc(Br)c(C)cc2OC[C@@H]2CNCCO2)cn1"
  thermal shift delta Tm [°C]: 0.85
- Molecule: "Cc1cc(Nc2cc(N)ncn2)c(=O)n2c1C(=O)NC21CCCCC1"
  thermal shift delta Tm [°C]: 2.1
- Molecule: "O=c1cc(N2CCOCC2)oc2c(-c3ccccc3)cccc12"
  thermal shift delta Tm [°C]: 0.08
- Molecule: "COc1ccc(CNC(=O)Nc2ncc([N+](=O)[O-])s2)cc1"
  thermal shift delta Tm [°C]: -0.24
- Molecule: "Cc1n[nH]c2ncc(C(=O)N3CCC[C@H]3c3ccc(Cl)cc3)cc12"
  thermal shift delta Tm [°C]: 1.35
- Molecule: "COc1ccc(-c2ccc3c(N4CCOC[C@@H]4C)nc(N4CCOC[C@@H]4C)nc3n2)cc1CO"
  thermal shift delta Tm [°C]: -1.22
- Molecule: "CC(C)n1nc(-c2cc3cc(O)ccc3[nH]2)c2c(N)ncnc21 [Torkinib (PP242)]"
  thermal shift delta Tm [°C]: 0.74
- Molecule: "Cc1nc(-c2cn3c(n2)-c2ccc(-c4cnn(C(C)(C)C(N)=O)c4)cc2OCC3)n(C(C)C)n1 [Taselisib (GDC 0032)]"
  thermal shift delta Tm [°C]: 0.27
- Molecule: "Cc1[nH]c(/C=C2\\C(=O)Nc3ccccc32)c(C)c1CCC(=O)O [Orantinib (TSU-68, SU6668)]"
  thermal shift delta Tm [°C]: 7.18
- Molecule: "CN1CCC(Nc2nc(Nc3ccc(Oc4ccccc4)cc3)c3c(=O)[nH]cc(Br)c3n2)CC1"
  thermal shift delta Tm [°C]: 3.98
- Molecule: "O=C1CCc2c(Oc3ccc4c(c3)[C@@H]3[C@H](O4)[C@H]3c3nc4cc(C(F)(F)F)ccc4[nH]3)ccnc2N1 [Lifirafenib (BGB-283)]"
  thermal shift delta Tm [°C]: 2.67
- Molecule: "Cc1cn(-c2cc(NC(=O)c3ccc(C)c(Nc4nccc(-c5cccnc5)n4)c3)cc(C(F)(F)F)c2)cn1 [Nilotinib (AMN-107)]"
  thermal shift delta Tm [°C]: 0.37
- Molecule: "c1ccc(-c2[nH]ncc2-c2ccnc3ccccc23)nc1"
  thermal shift delta Tm [°C]: 2.26
- Molecule: "COc1cc2c(Oc3ccc(NC(=O)C4(C(=O)Nc5ccc(F)cc5)CC4)cc3F)ccnc2cc1OCCCN1CCOCC1"
  thermal shift delta Tm [°C]: 7.45
- Molecule: "CCCCNc1ncc2c(-c3ccc(CN4CCN(C)CC4)cc3)cn([C@H]3CC[C@H](O)CC3)c2n1"
  thermal shift delta Tm [°C]: 12.2
- Molecule: "Cc1cc2c(F)c(Oc3ncnn4cc(OC[C@@H](C)OC(=O)[C@H](C)N)c(C)c34)ccc2[nH]1"
  thermal shift delta Tm [°C]: 0.99
- Molecule: "CC(C)CCN1c2nc(Nc3cc(F)c(O)c(F)c3)ncc2N(C)C(=O)C1C (stereo unspecified)"
  thermal shift delta Tm [°C]: 3.11
- Molecule: "Oc1cc(CNC(=S)/C=C/c2cc(O)c(O)c(Br)c2)cc(O)c1O"
  thermal shift delta Tm [°C]: -0.83
- Molecule: "N=C(N)NC(=N)NCCc1ccccc1 [Phenformin HCl]"
  thermal shift delta Tm [°C]: 1.22
- Molecule: "O=S(=O)(NCCNC/C=C/c1ccc(Br)cc1)c1cccc2cnccc12"
  thermal shift delta Tm [°C]: 0.95
- Molecule: "O=S(=O)(c1cccc2c(I)cccc12)N1CCCNCC1"
  thermal shift delta Tm [°C]: 0.9
- Molecule: "COc1cc2c(Oc3ccc4[nH]c(C)cc4c3F)ncnc2cc1OCCCN1CCCC1 [Cediranib (AZD2171)]"
  thermal shift delta Tm [°C]: 0.33
- Molecule: "O=C(/C=C/c1ccc2ccccc2n1)c1ccncc1"
  thermal shift delta Tm [°C]: 2.08
- Molecule: "C[C@H](Nc1ncnc2nc[nH]c12)c1cc2cccc(Cl)c2c(=O)n1-c1ccccc1 [Duvelisib (IPI-145, INK1197)]"
  thermal shift delta Tm [°C]: 0.47
- Molecule: "CCc1cccc(CC)c1NC(=O)N1Cc2[nH]nc(NC(=O)c3ccc(N4CCN(C)CC4)cc3)c2C1"
  thermal shift delta Tm [°C]: 4.48
- Molecule: "CCN1/C(=C/C(C)=O)Sc2ccc(OC)cc21"
  thermal shift delta Tm [°C]: 0.43
- Molecule: "CCOc1cc(C(=O)N2CCC(N3CCN(C)CC3)CC2)ccc1Nc1ncc2c(n1)N(C1CCCC1)c1ccccc1C(=O)N2C"
  thermal shift delta Tm [°C]: -0.51
- Molecule: "Cc1cc(Nc2cc(Cl)nc(Oc3ccc([N+](=O)[O-])cc3)n2)n[nH]1 [Autophinib]"
  thermal shift delta Tm [°C]: 0.42
- Molecule: "CCn1c2ccccc2c2cc(Nc3ccnc(NCCCN4CCOCC4)n3)ccc21"
  thermal shift delta Tm [°C]: -0.17
- Molecule: "Cc1ccc(NC(=O)Nc2cc(C(F)(F)F)ccc2F)cc1Nc1ccc2c(c1)NC(=O)/C2=C\\c1ccc[nH]1"
  thermal shift delta Tm [°C]: 0.57
